Value source: ChEMBL document CHEMBL4177760

Target: Muscarinic acetylcholine receptor M4 (Rattus norvegicus)
Sequence (P08485 whole entry): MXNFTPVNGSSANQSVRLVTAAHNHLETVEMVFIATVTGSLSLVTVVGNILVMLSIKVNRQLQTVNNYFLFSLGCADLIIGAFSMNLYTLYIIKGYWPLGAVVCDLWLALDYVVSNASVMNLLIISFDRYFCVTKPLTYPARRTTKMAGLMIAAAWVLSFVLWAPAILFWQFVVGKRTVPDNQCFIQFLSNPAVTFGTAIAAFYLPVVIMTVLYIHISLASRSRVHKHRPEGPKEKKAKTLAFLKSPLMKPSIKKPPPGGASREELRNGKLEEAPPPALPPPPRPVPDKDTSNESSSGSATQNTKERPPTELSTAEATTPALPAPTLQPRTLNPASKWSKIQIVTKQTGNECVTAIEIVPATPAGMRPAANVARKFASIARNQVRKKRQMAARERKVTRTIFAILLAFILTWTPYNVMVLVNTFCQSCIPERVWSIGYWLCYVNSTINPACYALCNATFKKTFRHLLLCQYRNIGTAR
measurement_name: pKi
Lab note: report pKi as minus log10 of the concentration in molar units, number only.

Bench note: what pKi did Cc1ccc(O)c([C@H](CCN(C(C)C)C(C)C)c2ccccc2)c1 [TOLTERODINE] show? 8.51

---

target: Muscarinic acetylcholine receptor; assay: Displacement of [3H]NMS from muscarinic receptor in Sprague-Dawley rat brain homogenates after 60 mins by liquid scintillation counting method
Provide the reported pIC50 of each item.
Keep the answer to the number alone.

Bench note: what pIC50 did `CCCCCCCCCCCCCCCCCC(=O)OC[C@H](COP(=O)(O)OCCOCCOCCOCCOCCOCCOCCOCCOCCOCCOCCOCCNC(=O)CCCCCC(=O)NCCc1ccc(O)c([C@H](CCN(C(C)C)C(C)C)c2ccccc2)c1)OC(=O)CCCCCCCCCCCCCCCCC` show? 8.49

Bench note: what pIC50 did `CCCCCCCCCCCCCCCCCC(=O)OC[C@H](COP(=O)(O)OCCOCCNC(=O)CCCCCC(=O)NCCc1ccc(O)c([C@H](CCN(C(C)C)C(C)C)c2ccccc2)c1)OC(=O)CCCCCCCCCCCCCCCCC` show? 6.91

Bench note: what pIC50 did `CCCCCCCCCCCCCCCCCC(=O)OC[C@H](COP(=O)(O)OCCOCCOCCOCCOCCOCCOCCOCCNC(=O)CCCCCC(=O)NCCc1ccc(O)c([C@H](CCN(C(C)C)C(C)C)c2ccccc2)c1)OC(=O)CCCCCCCCCCCCCCCCC` show? 8.15

Bench note: what pIC50 did `CCCCCCCCCCCCCCCCCC(=O)OC[C@H](COP(=O)(O)OCCOCCOCCOCCOCCOCCOCCOCCOCCOCCNC(=O)CCCCCC(=O)NCCc1ccc(O)c([C@H](CCN(C(C)C)C(C)C)c2ccccc2)c1)OC(=O)CCCCCCCCCCCCCCCCC` show? 8.53

Bench note: what pIC50 did `CCCCCCCCCCCCCCCCCC(=O)OC[C@H](COP(=O)(O)OCCOCCOCCOCCOCCOCCNC(=O)CCCCCC(=O)NCCc1ccc(O)c([C@H](CCN(C(C)C)C(C)C)c2ccccc2)c1)OC(=O)CCCCCCCCCCCCCCCCC` show? 7.86

Bench note: what pIC50 did `CC(C)N(CC[C@H](c1ccccc1)c1cc(CCNC(=O)CCCCCC(=O)NCCOCCOCCOCCOCCOCCOCCOCCOCCOCCO)ccc1O)C(C)C.Cl` show? 7.88

Bench note: what pIC50 did `CCCCCCCCCCCCCCCCCC(=O)OC[C@H](COP(=O)(O)OCCOCCOCCOCCNC(=O)CCCCCC(=O)NCCc1ccc(O)c([C@H](CCN(C(C)C)C(C)C)c2ccccc2)c1)OC(=O)CCCCCCCCCCCCCCCCC` show? 7.74
